- Method Summary: Part 2 PK study: 200 mg QD versus 100 mg BID for 10 days under fed conditions
- Format: in vivo, human
- Test Conditions: human, plasma, oral, 200 mg, 200 mg QD, fed, Day 10; median; read-out: Cmax
Value Type: Cmax (ng/mL)
# number only, unit ng/mL dropped from output

Cmax for c1cnc(NCc2ccc(CNc3ncccn3)cc2)nc1 is 1440

---

- Method Summary: Part 2 PK study: 200 mg QD versus 100 mg BID for 10 days under fed conditions
- Type: in vivo, human
- Test Conditions: human, plasma, oral, 200 mg, 200 mg QD, fed, Day 10; median
Value Type: AUC(0-t)
Please make sure the unit comes right after the number.

AUC(0-t) for c1cnc(NCc2ccc(CNc3ncccn3)cc2)nc1 is 11.1 µg·h/mL

---

- Method Summary: Part 1 PK study: single oral 200 mg dose, fed (high-fat meal) versus fasted
- Assay type: in vivo, human
- Test Conditions: female, human, plasma, oral, 200 mg, single dose 200 mg, fed; read-out: Tmax (range over subjects)
Value Type: Tmax

Tmax for c1cnc(NCc2ccc(CNc3ncccn3)cc2)nc1 is 0.5 to 10 h

---

- Method Summary: Part 1 PK study: single oral 200 mg dose, fed (high-fat meal) versus fasted
- Format: in vivo, human
- Test Conditions: female, human, plasma, po, 200 mg, single oral 200 mg, fasted; median
Value Type: AUC(0-t)
Please make sure the unit comes right after the number.

AUC(0-t) for c1cnc(NCc2ccc(CNc3ncccn3)cc2)nc1 [Q-122] is 6330 ng·h/mL

---

- Method Summary: Part 2 PK study: 200 mg QD versus 100 mg BID for 10 days under fed conditions
- Assay type: in vivo, human
- Test Conditions: human, plasma, oral, 100 mg, 100 mg BID, fed, Day 10; mean
Value Type: AUC(0-inf) (ng·h/mL)
# number only, unit ng·h/mL dropped from output

AUC(0-inf) for c1cnc(NCc2ccc(CNc3ncccn3)cc2)nc1 [Q-122] is 7270

---

- Method Summary: Part 2 PK study: 200 mg QD versus 100 mg BID for 10 days under fed conditions
- Type: in vivo, human
- Test Conditions: human, plasma, oral, 100 mg, 100 mg BID, fed, Day 10; mean; read-out: AUC0-tau
Value Type: AUC

AUC for c1cnc(NCc2ccc(CNc3ncccn3)cc2)nc1 [Q-122] is 5440 ng·h/mL

---

- Method Summary: Part 2 PK study: 200 mg QD versus 100 mg BID for 10 days under fed conditions
- Type: in vivo, human
- Test Conditions: human, plasma, oral, 100 mg, 100 mg BID, fed, Day 1; mean; read-out: AUC0-tau
Value Type: AUC (ng·h/mL)
# number only, unit ng·h/mL dropped from output

AUC for c1cnc(NCc2ccc(CNc3ncccn3)cc2)nc1 [Q-122] is 3590

---

- Method Summary: Part 2 PK study: 200 mg QD versus 100 mg BID for 10 days under fed conditions
- Format: in vivo, human
- Test Conditions: human, plasma, oral, 100 mg, 100 mg BID, fed, Day 10; individual subjects
- From the text: Part 2 involved analysing the PK parameters obtained following either single (QD) or twice daily (BD) dosing of a compound of formula (Ia) under fed conditions. […] For both Parts 1 and 2, samples were processed and analysed as follows. […] The analytes were separated by HPLC on a Phenomenex Synergi Polar-RP column, and the eluates monitored by an API4000 MS/MS detector in positive MRM mode. […]
Value Type: AUC(0-t)

AUC(0-t) for c1cnc(NCc2ccc(CNc3ncccn3)cc2)nc1 is 8810 ng·h/mL

---

- Method Summary: Part 2 PK study: 200 mg QD versus 100 mg BID for 10 days under fed conditions
- Type: in vivo, human
- Test Conditions: human, plasma, oral, 200 mg, 200 mg QD, fed, Day 10; mean; read-out: Cmax
Value Type: Cmax (ng/mL)
# number only, unit ng/mL dropped from output

Cmax for c1cnc(NCc2ccc(CNc3ncccn3)cc2)nc1 is 1270

---

- Method Summary: Part 2 PK study: 200 mg QD versus 100 mg BID for 10 days under fed conditions
- Assay type: in vivo, human
- Test Conditions: human, plasma, oral, 100 mg, 100 mg BID, fed, Day 10; median; read-out: AUC0-tau
Value Type: AUC (ng·h/mL)
# number only, unit ng·h/mL dropped from output

AUC for c1cnc(NCc2ccc(CNc3ncccn3)cc2)nc1 is 5760

---

- Method Summary: Part 1 PK study: single oral 200 mg dose, fed (high-fat meal) versus fasted
- Type: in vivo, human
- Test Conditions: female, human, plasma, po, 200 mg, single oral 200 mg, fasted; median; read-out: Vz/F
Value Type: Vd/F
Please make sure the unit comes right after the number.

Vd/F for c1cnc(NCc2ccc(CNc3ncccn3)cc2)nc1 is 798 L

---

- Method Summary: Part 1 PK study: single oral 200 mg dose, fed (high-fat meal) versus fasted
- Assay type: in vivo, human
- Test Conditions: female, human, plasma, po, 200 mg, single oral 200 mg, fasted; mean; read-out: Cmax
Value Type: Cmax (ng/mL)
# number only, unit ng/mL dropped from output

Cmax for c1cnc(NCc2ccc(CNc3ncccn3)cc2)nc1 [Q-122] is 620

---

- Method Summary: Part 2 PK study: 200 mg QD versus 100 mg BID for 10 days under fed conditions
- Assay type: in vivo, human
- Test Conditions: human, plasma, oral, 100 mg, 100 mg BID, fed, Day 10; median; read-out: t½ (converted)
Value Type: half-life (h)
# number only, unit h dropped from output

half-life for c1cnc(NCc2ccc(CNc3ncccn3)cc2)nc1 [Q-122] is 8.2

---

- Method Summary: Part 2 PK study: 200 mg QD versus 100 mg BID for 10 days under fed conditions
- Format: in vivo, human
- Test Conditions: human, plasma, oral, 100 mg, 100 mg BID, fed, Day 1; individual subjects
Value Type: AUC(0-t) (ng·h/mL)
# number only, unit ng·h/mL dropped from output

AUC(0-t) for c1cnc(NCc2ccc(CNc3ncccn3)cc2)nc1 is 8170

---

- Method Summary: Part 1 PK study: single oral 200 mg dose, fed (high-fat meal) versus fasted
- Type: in vivo, human
- Test Conditions: female, human, plasma, po, 200 mg, single oral 200 mg, fasted; median; read-out: Cmax
Value Type: Cmax (ng/mL)
# number only, unit ng/mL dropped from output

Cmax for c1cnc(NCc2ccc(CNc3ncccn3)cc2)nc1 is 613

---

- Method Summary: Part 2 PK study: 200 mg QD versus 100 mg BID for 10 days under fed conditions
- Assay type: in vivo, human
- Test Conditions: human, plasma, oral, 100 mg, 100 mg BID, fed, Day 1; individual subjects; read-out: AUC0-tau
Value Type: AUC (ng·h/mL)
# number only, unit ng·h/mL dropped from output

AUC for c1cnc(NCc2ccc(CNc3ncccn3)cc2)nc1 [Q-122] is 2800

---

- Method Summary: Part 2 PK study: 200 mg QD versus 100 mg BID for 10 days under fed conditions
- Format: in vivo, human
- Test Conditions: 100 mg BID, fed, Day 10; min
- Description: Part 2 involved analysing the PK parameters obtained following either single (QD) or twice daily (BD) dosing of a compound of formula (Ia) under fed conditions. […] For both Parts 1 and 2, samples were processed and analysed as follows. […] The analytes were separated by HPLC on a Phenomenex Synergi Polar-RP column, and the eluates monitored by an API4000 MS/MS detector in positive MRM mode. […]
Value Type: Tlast (h)
# number only, unit h dropped from output

Tlast for c1cnc(NCc2ccc(CNc3ncccn3)cc2)nc1 is 24

---

- Method Summary: Part 2 PK study: 200 mg QD versus 100 mg BID for 10 days under fed conditions
- Type: in vivo, human
- Test Conditions: human, plasma, oral, 200 mg, 200 mg QD, fed, Day 10; mean; read-out: t½ (converted)
Value Type: half-life (min)
# number only, unit min dropped from output

half-life for c1cnc(NCc2ccc(CNc3ncccn3)cc2)nc1 [Q-122] is 1230

---

- Method Summary: Part 2 PK study: 200 mg QD versus 100 mg BID for 10 days under fed conditions
- Type: in vivo, human
- Test Conditions: human, plasma, oral, 100 mg, 100 mg BID, fed, Day 1; mean
Value Type: AUC(0-t) (ng·h/mL)
# number only, unit ng·h/mL dropped from output

AUC(0-t) for c1cnc(NCc2ccc(CNc3ncccn3)cc2)nc1 is 6630

---

- Method Summary: Part 2 PK study: 200 mg QD versus 100 mg BID for 10 days under fed conditions
- Assay type: in vivo, human
- Test Conditions: human, plasma, oral, 200 mg, 200 mg QD, fed, Day 1; mean; read-out: AUC0-tau
Value Type: AUC
Please make sure the unit comes right after the number.

AUC for c1cnc(NCc2ccc(CNc3ncccn3)cc2)nc1 is 8060 ng·h/mL

All values here come from patent US20220133722A1.
